target: huPD-L1 (Homo sapiens, UniProt Q9NZQ7); assay: Flow binding to CHO cells stably expressing PD-L1; design: huCTLA4 and huPD-L1, full-length mammalian surface expression constructs were generated; expressed in transfected cells; host or cells: CHO cells, lentiviral transduction, sorted to >98% purity; conditions: Table E20; ratio of MFI at 33.3 nM
Sequence (Q9NZQ7 19-290): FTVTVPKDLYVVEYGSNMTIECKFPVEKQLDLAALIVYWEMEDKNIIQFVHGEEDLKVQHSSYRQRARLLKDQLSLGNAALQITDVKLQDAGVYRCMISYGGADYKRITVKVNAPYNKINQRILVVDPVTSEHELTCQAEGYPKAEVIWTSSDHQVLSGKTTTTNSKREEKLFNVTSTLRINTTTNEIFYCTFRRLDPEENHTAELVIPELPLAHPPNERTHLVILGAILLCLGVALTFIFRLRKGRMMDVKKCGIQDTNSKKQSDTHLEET
Endpoint Name: Ratio of PDL1:CD28
The response must contain the number and no unit.

Example entries and their recorded answers appear below.
Molecule	Endpoint Name	Reported Value
E35D/M47L/A71G/D90G (protein) VIHVTKEVKEVATLSCGHNVSVEELAQTRIYWQKDKKMVLTMMSGDLNIWPEYKNRTIFDITNNLSIVILGLRPSDEGTYECVVLKYEKGAFKREHLAEVTLSVKAD	Ratio of PDL1:CD28	9.1
A26E/E35D/M47L/D90G (protein) VIHVTKEVKEVATLSCGHNVSVEELEQTRIYWQKDKKMVLTMMSGDLNIWPEYKNRTIFDITNNLSIVILALRPSDEGTYECVVLKYEKGAFKREHLAEVTLSVKAD	Ratio of PDL1:CD28	6.2
A26E/E35D/V68M/D90G (protein) VIHVTKEVKEVATLSCGHNVSVEELEQTRIYWQKDKKMVLTMMSGDMNIWPEYKNRTIFDITNNLSIMILALRPSDEGTYECVVLKYEKGAFKREHLAEVTLSVKAD	Ratio of PDL1:CD28	4.2
A26E/M47L/A71G/D90G (protein) VIHVTKEVKEVATLSCGHNVSVEELEQTRIYWQKEKKMVLTMMSGDLNIWPEYKNRTIFDITNNLSIVILGLRPSDEGTYECVVLKYEKGAFKREHLAEVTLSVKAD	Ratio of PDL1:CD28	6.8
M47L/V68M/A71G/D90G (protein) VIHVTKEVKEVATLSCGHNVSVEELAQTRIYWQKEKKMVLTMMSGDLNIWPEYKNRTIFDITNNLSIMILGLRPSDEGTYECVVLKYEKGAFKREHLAEVTLSVKAD	Ratio of PDL1:CD28	8.6
H18Y/A26E/V68M/D90G (protein) VIHVTKEVKEVATLSCGYNVSVEELEQTRIYWQKEKKMVLTMMSGDMNIWPEYKNRTIFDITNNLSIMILALRPSDEGTYECVVLKYEKGAFKREHLAEVTLSVKAD	Ratio of PDL1:CD28	5.4
H18Y/V68M/A71G/D90G (protein) VIHVTKEVKEVATLSCGYNVSVEELAQTRIYWQKEKKMVLTMMSGDMNIWPEYKNRTIFDITNNLSIMILGLRPSDEGTYECVVLKYEKGAFKREHLAEVTLSVKAD	Ratio of PDL1:CD28	9.0
E35D/M47L/V68M/D90G (protein) VIHVTKEVKEVATLSCGHNVSVEELAQTRIYWQKDKKMVLTMMSGDLNIWPEYKNRTIFDITNNLSIMILALRPSDEGTYECVVLKYEKGAFKREHLAEVTLSVKAD	Ratio of PDL1:CD28	6.9

As a next step, examine the molecule that follows.
Given the entry H18Y/A26E/V68M/A71G (protein) VIHVTKEVKEVATLSCGYNVSVEELEQTRIYWQKEKKMVLTMMSGDMNIWPEYKNRTIFDITNNLSIMILGLRPSDEGTYECVVLKYEKDAFKREHLAEVTLSVKAD , report its measured Ratio of PDL1:CD28.
69.1
